Recorded Percent Effect by entry
# TESTED TARGET: Chromo domain-containing protein 1 (Saccharomyces cerevisiae (strain ATCC 204508 / S288c) (Baker's yeast))
# MEASUREMENT DESCRIPTION: ScCHD-1 Enzyme Inhibition Assay; note: in the data most compounds retested in dose-response had high values
# Format: functional
# Parameters: scale not given: direction of the effect not stated beside the values
# ASSAY CONTEXT: 30 µM
RESULT TYPE: Percent Effect (%)

>>> measurement("c1cncc(N2CCOCC3(CCCN(c4nncs4)C3)C2)c1 (stereo unspecified)")
3.64
>>> measurement("Cc1cc(C2CCCN2CC(=O)N(CCC#N)c2ccccc2F)on1 (stereo unspecified)")
-6.79
>>> measurement("COc1ccc(C2CC(=O)Nc3c2cnn3C)cc1 (stereo unspecified)")
-3.56
>>> measurement("CC1CCCN(C(=O)c2cccc(CS(C)(=O)=O)c2)C1 (stereo unspecified)")
20.9
>>> measurement("Cc1nc(CN2CCCC(CCc3c(F)cccc3F)C2)c[nH]1 (stereo unspecified)")
96.9
>>> measurement("COc1ccccc1CC(=O)N1CCC(NCc2cccnc2)CC1")
-3.87
>>> measurement("Cc1ccccc1N1CCN(C(=O)c2ccc[nH]2)C(C)C1 (stereo unspecified)")
-1.74
>>> measurement("Cc1nnc(NCc2ccccc2Cl)c(C#N)c1C")
5.89
>>> measurement("CCOc1ccc(S(=O)(=O)NC(=O)CCC2CCCO2)cc1 (stereo unspecified)")
-9.06
>>> measurement("Cc1[nH]c2ccccc2c1-c1ccnc(NCCN2CCOCC2)n1")
-15.1
>>> measurement("Cc1nccn1CC1CCCN1S(=O)(=O)Cc1ccccc1F (stereo unspecified)")
-7.01

###

# TESTED TARGET: Tyrosyl-tRNA synthetase, putative (Trypanosoma cruzi (strain CL Brener))
# MEASUREMENT DESCRIPTION: Trypanosoma cruzi tyrosyl tRNA synthetase (TcYRS) _High Tyrosine SOP; note: in the data most compounds retested in dose-response had high values
# Format: functional
# Design: scale not given: direction of the effect not stated beside the values
# ASSAY CONTEXT: 30 µM
RESULT TYPE: Percent Effect (%)

>>> measurement("O=C(Nc1cccc(CN2CCOC2=O)c1)N1CCOCC1")
2.1
>>> measurement("O=C(NCCCN1CCCCC1)c1ccc(-n2ccc3ccccc32)s1")
-3.17
>>> measurement("CCN(CC)C1CCN(C(=O)NCc2nncn2CC)CC1")
0.526
>>> measurement("CC(=O)c1cccc(OCCCC(=O)NCC2CCCN2C)c1 (centres undefined)")
10.3

###

Recorded Percent Effect by entry
# TESTED TARGET: Tyrosyl-tRNA synthetase, putative (Trypanosoma cruzi (strain CL Brener)) (UniProt Q4DSP6)
# Sequence (Q4DSP6 as listed by the source): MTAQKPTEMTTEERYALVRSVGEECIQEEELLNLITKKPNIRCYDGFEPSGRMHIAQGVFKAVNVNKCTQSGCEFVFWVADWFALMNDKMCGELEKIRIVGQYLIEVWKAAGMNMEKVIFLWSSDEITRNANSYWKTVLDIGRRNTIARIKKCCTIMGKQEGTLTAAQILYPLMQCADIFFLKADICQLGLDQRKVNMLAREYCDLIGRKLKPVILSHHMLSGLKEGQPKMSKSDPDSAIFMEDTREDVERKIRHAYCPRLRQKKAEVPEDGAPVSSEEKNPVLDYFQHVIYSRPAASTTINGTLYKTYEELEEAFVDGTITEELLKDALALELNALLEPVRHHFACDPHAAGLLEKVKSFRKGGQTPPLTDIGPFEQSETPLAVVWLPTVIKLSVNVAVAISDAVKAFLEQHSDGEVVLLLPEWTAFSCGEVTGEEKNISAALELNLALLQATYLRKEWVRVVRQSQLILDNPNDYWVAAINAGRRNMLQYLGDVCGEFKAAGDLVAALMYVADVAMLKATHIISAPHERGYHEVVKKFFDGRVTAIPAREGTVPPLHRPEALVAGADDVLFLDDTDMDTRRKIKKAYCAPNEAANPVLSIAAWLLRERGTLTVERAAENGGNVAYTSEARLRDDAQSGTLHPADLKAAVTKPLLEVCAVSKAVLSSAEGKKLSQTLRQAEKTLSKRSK
# MEASUREMENT DESCRIPTION: Trypanosoma cruzi tyrosyl tRNA synthetase (TcYRS) _High Tyrosine SOP; note: in the data most compounds retested in dose-response had high values
# Type: functional
# Set-up: scale not given: direction of the effect not stated beside the values
# ASSAY CONTEXT: 30 µM
RESULT TYPE: Percent Effect

>>> measurement("c1ccc2oc(N3CCCCC3Cn3cncn3)nc2c1 (configuration not stated)")
"7.92%"
>>> measurement("CCC(=O)N1CCCC(c2cc(Nc3ncccn3)nc(C)n2)C1 (configuration not stated)")
"6.45%"
>>> measurement("Cc1cc(C(=O)N2CCCC(c3noc(C)n3)C2)[nH]n1 (configuration not stated)")
"8.37%"
>>> measurement("CN(C)CCN1C(=O)CCC12CCN(C(=O)c1cccnc1)CC2")
"1.93%"
>>> measurement("CN(C)C(C(=O)N1CCCC1)c1ccccc1F (configuration not stated)")
"3.16%"
>>> measurement("Cc1cnc(CN(C)C2CCN(CC(=O)Nc3nncs3)C2)o1 (configuration not stated)")
"12.3%"
>>> measurement("Cc1nn(C)c(C)c1CNCc1ccc(N2CCOCC2)nc1")
"8.33%"

###

# Tested on: Trypanosoma cruzi
# MEASUREMENT DESCRIPTION: Trypanosoma cruzi phosphomannomutase and mannose-1-phosphate guanylyltransferase assay
# Format: functional
# Set-up: scale not given: direction of the effect not stated beside the values
# ASSAY CONTEXT: 10 µM
Recorded Percent Effect by entry
RESULT TYPE: Percent Effect (%)

>>> measurement("O=S(=O)(C1CC1)N1C[C@H]2CCC[C@@]2(COc2ccccn2)C1")
-4.32
>>> measurement("CNc1nc(C)c(C(=O)N2CCCCC2CN2CCCCCC2)s1 (stereo not drawn)")
3.74
>>> measurement("COC(=O)c1ccc(N2CCN(C(=O)c3cnn(C)c3)C(C)C2)cc1 (stereo not drawn)")
6.14
>>> measurement("Cc1nnc(CCNC2CCN(c3ncnc4c(C)csc34)CC2)s1")
7.77
>>> measurement("COCc1nc(C(=O)NS(=O)(=O)c2ccc(C)cc2C)cs1")
1.97
>>> measurement("O=C(Cc1ccccn1)N1CCc2nc(-c3cnccn3)nc(O)c2C1")
0.593
>>> measurement("O=C(c1ccc(C(F)(F)F)nc1)N1CCCC(n2cncn2)C1 (stereo not drawn)")
5.92
>>> measurement("CN1CCCN(C(=O)c2ccc3c(c2)nc(N2CCOCC2)n3C)CC1")
-3.6
>>> measurement("c1cnc(-c2nc(CN3CCOC(Cn4cncn4)C3)cs2)nc1 (stereo not drawn)")
-0.66
>>> measurement("CCc1cccc(N2CCC(NC(=O)c3cc[nH]n3)CC2)c1")
-3.59
>>> measurement("COc1ccc(CN2CCC3(CC2)NC(=O)CC3c2ccncc2)cc1 (stereo not drawn)")
-2.43
>>> measurement("Cc1cn2c(n1)CCC(NC(=O)c1nc(C)ncc1Cl)C2 (stereo not drawn)")
4.41
>>> measurement("CS(=O)(=O)c1ccc(C(O)CN2CCC(c3ccn[nH]3)CC2)cc1 (stereo not drawn)")
-2.17
>>> measurement("CC(C)N(C)CCCNC(=O)c1cnc(-c2ccccc2)nc1")
6.75
>>> measurement("CNC(=O)c1cccc(C2CNCCN2C(C)=O)c1 (stereo not drawn)")
-4.15
>>> measurement("CC(=O)N1C[C@@H](c2ccsc2)[C@@H]2CN(Cc3cccc(Cl)c3)CC[C@@H]21")
-1.97
>>> measurement("COCCNC(=O)Nc1ccc(F)c(C(N)=O)c1")
-5.04
>>> measurement("O=C1CC(c2cccnc2)C2(CCN(C(=O)c3ccncc3)CC2)N1 (stereo not drawn)")
3.81
>>> measurement("O=C(NCCn1ccc(-c2ccccn2)n1)c1ccncc1")
6.46
>>> measurement("Cc1cccc2nc(C(=O)N3CCC(Nc4cccnn4)CC3)cn12")
-0.0979
>>> measurement("CCN(CC)C(=O)CCNC(=O)Cc1nc(-c2ccco2)oc1C")
-5.75
>>> measurement("CC(C)c1cc(NC(=O)CN2CCc3c(nc(C(C)C)n3C)C2)on1")
2.62
>>> measurement("O=C(NCc1ccco1)C1CCCN1Cc1nc(-c2ccco2)no1 (stereo not drawn)")
-4.18
>>> measurement("C[C@H]1C[C@@H]2CCN(C(=O)c3ccncn3)C[C@H]2O1")
1.56
>>> measurement("O=C(CS(=O)(=O)c1ccccc1Cl)NC1CCCCNC1=O (stereo not drawn)")
2.43
>>> measurement("Cc1ccn2cc(C(=O)N3CCCC3c3c(C)nn(C)c3C)nc2c1 (stereo not drawn)")
-3.79
>>> measurement("CC(C)c1nn(C)c(N2CCOCC2)c1CNCCS(C)(=O)=O")
1.22
>>> measurement("Cc1cc(C(=O)NCc2ccc(N3CCCC(C(N)=O)C3)cc2)no1 (stereo not drawn)")
3.01

###

# TESTED TARGET: Tyrosyl-tRNA synthetase, putative (Trypanosoma cruzi (strain CL Brener)) (UniProt Q4DSP6)
# MEASUREMENT DESCRIPTION: Trypanosoma cruzi tyrosyl tRNA synthetase (TcYRS) _High Tyrosine SOP; note: in the data most compounds retested in dose-response had high values
# Type: functional
# Design: scale not given: direction of the effect not stated beside the values
# ASSAY CONTEXT: 30 µM
RESULT TYPE: Percent Effect (%)

>>> measurement("CCC1CN(C(=O)c2ccc(=O)[nH]c2)CCC(=O)N1Cc1ccccc1 (stereo unspecified)")
0
>>> measurement("CS(=O)(=O)NCc1cnc2n1CCN(Cc1ccsc1)CC2")
8.33
>>> measurement("COCCc1noc(CN(C)C(=O)c2cccc(N3CCCC3=O)c2)n1")
-0.493
>>> measurement("Cc1nn(C)c2c(NCc3ccccc3F)nc(C3CC3)nc12")
-3.23
>>> measurement("Cc1nc(C)n(CC2CN(Cc3cccc(C#N)c3)CCO2)n1 (stereo unspecified)")
-10.3
>>> measurement("Cc1ccccc1CN1CCCN(C2CCOC2=O)CC1 (stereo unspecified)")
2.46
>>> measurement("CNC(=O)C1CCC(NC(=O)N(C)Cc2c(C)noc2C)CC1 (stereo unspecified)")
6.22
>>> measurement("Fc1ccc(CN2CCCC(Cn3cncn3)C2)c2ncccc12 (stereo unspecified)")
5.38
>>> measurement("Cc1ccccc1CN1CCN(Cc2nccn2C)CC1")
3.45
>>> measurement("CCOc1ncccc1NC(=O)N1CCN(c2cccc(C)c2C)CC1")
3.96
>>> measurement("O=C(O)c1ccc(F)c(S(=O)(=O)Nc2c(F)cccc2-n2cccn2)c1")
4.92
>>> measurement("CN(C(=O)Cc1c[nH]c2ccccc12)C1CCN(c2ccccn2)CC1")
3.68
>>> measurement("Cc1ccc(CN2CCc3ncnc(C4CC4)c3CC2)s1")
8.33
>>> measurement("CS(=O)(=O)CCNC(=O)C1(c2cccc(Cl)c2)CCCCC1")
-4.21
>>> measurement("O=C(C(CNCc1ccncc1)c1ccccc1)N1CCOCC1 (stereo unspecified)")
3.23
>>> measurement("Cc1cc(NC(=O)CN2CCOC(Cn3cccn3)C2)n(C)n1 (stereo unspecified)")
2.86
>>> measurement("Cc1cnccc1N1CCCN(C(=O)CCCS(N)(=O)=O)CC1")
2.15
>>> measurement("CN(C)S(=O)(=O)N1C[C@@H]2CC[C@H](C1)N(Cc1ccc3nsnc3c1)C2")
2.1
>>> measurement("CCc1ncncc1C(=O)N1CCCN(Cc2ccc(C)cc2)CC1")
-2.46
>>> measurement("CCn1nnc2c1C(COC)CN(Cc1ccsc1)C2 (stereo unspecified)")
2.15
>>> measurement("COCc1cccc(NS(=O)(=O)c2cc(C(=O)O)cs2)c1")
3.35
